molecular target: CDK2/Cyclin A complex (Homo sapiens, UniProt P24941); test: CDK2/Cyclin A assay; assay type: biochemical; settings: 1.0 μM; combinatorial library compounds
Decide using inhibition at 1 µM: a value greater than or equal to 10% is satisfied, a smaller one is not satisfied.

Reference set, count: 8
CC(C)c1ccc(Nc2nc(N)c(-c3nc(-c4cccc(Br)c4)cs3)s2)cc1	satisfied
CN(C)c1ccc(Nc2nc(N)c(-c3nc(-c4ccc(CC(=O)O)s4)cs3)s2)cc1	not satisfied
Cc1cc(-c2csc(-c3sc(Nc4ccc(N(C)C)cc4)nc3N)n2)cc(C)c1O	satisfied
Nc1nc(Nc2ccc(S(N)(=O)=O)cc2)sc1-c1nc(-c2cc(Br)c(Cl)s2)cs1	satisfied
Nc1nc(Nc2ccc(S(N)(=O)=O)cc2)sc1-c1nc(-c2cc(-c3ccccc3)no2)cs1	satisfied
CC(=O)Oc1ccccc1-c1csc(-c2sc(Nc3ccc(C(C)C)cc3)nc2N)n1	not satisfied
CCN(CC)c1ccc(-c2csc(-c3sc(Nc4ccc(N(C)C)cc4)nc3N)n2)cc1	satisfied
CN(C)c1ccc(Nc2nc(N)c(-c3nc(-c4ccc5oc6ccccc6c5c4)cs3)s2)cc1	satisfied

Here is the next item to consider.
Is it the case that CN(C)c1ccc(Nc2nc(N)c(-c3nc(-c4ccc(Cl)cc4)cs3)s2)cc1 has inhibition at 1 µM reaching or exceeding 10%? satisfied

* * *

target: CDK4/Cyclin D3 complex (Homo sapiens, UniProt P11802); construct: made in house; host or cells: insect cells co-infected with baculovirus vectors; assay: CDK4/Cyclin D assay; assay type: biochemical; conditions: 1.0 μM; combinatorial library compounds
Sequence (P11802 whole entry): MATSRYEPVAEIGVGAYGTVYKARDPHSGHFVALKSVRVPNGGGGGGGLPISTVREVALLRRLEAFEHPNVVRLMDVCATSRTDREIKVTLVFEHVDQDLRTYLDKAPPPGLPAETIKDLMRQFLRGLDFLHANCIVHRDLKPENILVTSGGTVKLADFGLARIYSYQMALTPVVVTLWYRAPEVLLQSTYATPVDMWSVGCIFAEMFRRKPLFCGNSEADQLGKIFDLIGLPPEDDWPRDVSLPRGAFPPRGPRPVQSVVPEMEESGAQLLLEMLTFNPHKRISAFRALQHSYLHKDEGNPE
Sequence (P30281 whole entry partner): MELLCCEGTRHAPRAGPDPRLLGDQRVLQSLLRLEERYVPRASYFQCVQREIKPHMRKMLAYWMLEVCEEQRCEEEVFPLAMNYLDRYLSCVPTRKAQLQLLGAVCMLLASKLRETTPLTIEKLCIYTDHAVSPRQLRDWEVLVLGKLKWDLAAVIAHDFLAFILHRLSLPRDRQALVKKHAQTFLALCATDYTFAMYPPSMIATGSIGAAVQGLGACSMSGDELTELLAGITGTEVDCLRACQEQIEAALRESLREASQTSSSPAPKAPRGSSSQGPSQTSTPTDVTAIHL
Provide the reported inhibition at 1 µM of each item.
One number for each entry, in %.

Below: 2 molecules and their reported inhibition at 1 µM.
CC(C)c1ccc(Nc2nc(N)c(-c3nc(-c4ccc(CC(=O)O)s4)cs3)s2)cc1	61.8
Nc1nc(Nc2ccc(S(N)(=O)=O)cc2)sc1-c1nc(-c2cc(-c3ccc(Cl)c(Cl)c3)no2)cs1	-31.3

Give measured inhibition at 1 µM for every item shown.
1. Cc1ccc(-c2csc(-c3sc(Nc4ccc(C(C)C)cc4)nc3N)n2)cc1
2. CN(C)c1ccc(Nc2nc(N)c(-c3nc(-c4ccc(O)c(O)c4)cs3)s2)cc1
3. CC(C)c1ccc(Nc2nc(N)c(-c3nc(-c4ccc(F)cc4F)cs3)s2)cc1
4. CN(C)c1ccc(Nc2nc(N)c(-c3nc(-c4ccc(C#N)cc4)cs3)s2)cc1

[55.9, 53, 91.5, 36.4]

Give measured inhibition at 1 µM for every item shown.
1. Nc1nc(Nc2ccc(S(N)(=O)=O)cc2)sc1-c1nc(-c2cc(-c3ccccc3)no2)cs1
2. Cc1cc(-c2csc(-c3sc(Nc4ccc(N(C)C)cc4)nc3N)n2)ccc1Cl
3. CCCCCc1ccc(-c2csc(-c3sc(Nc4ccc(S(N)(=O)=O)cc4)nc3N)n2)cc1
4. Nc1nc(Nc2ccc(S(N)(=O)=O)cc2)sc1-c1nc(-c2ccccc2[N+](=O)[O-])cs1

-0.5
15.2
-7.2
57.8

Give measured inhibition at 1 µM for every item shown.
1. Nc1nc(Nc2ccc(S(N)(=O)=O)cc2)sc1-c1nc(-c2ccc(F)cc2)cs1 [drawing 409]
2. Cc1c(C)c(C)c(-c2csc(-c3sc(Nc4ccc(C(C)C)cc4)nc3N)n2)c(C)c1C
3. Cc1cc(-c2csc(-c3sc(Nc4ccc(S(N)(=O)=O)cc4)nc3N)n2)cs1
4. CN(C)c1ccc(Nc2nc(N)c(-c3nc(-c4cc(Br)c(Cl)s4)cs3)s2)cc1
5. Nc1nc(Nc2ccc(S(N)(=O)=O)cc2)sc1-c1nc(-c2ccc[nH]2)cs1
6. COc1ccc2nc(-c3ccccc3)c(-c3csc(-c4sc(Nc5ccc(C(C)C)cc5)nc4N)n3)cc2c1
7. CN(C)c1ccc(Nc2nc(N)c(-c3nc(-c4ccc(Cl)cc4Cl)cs3)s2)cc1
8. CC(=O)Oc1ccccc1-c1csc(-c2sc(Nc3ccc(C(C)C)cc3)nc2N)n1

1. 61.2
2. 84.7
3. 59.6
4. 69.1
5. 39.7
6. 85.1
7. 76.1
8. 44.3

CDK4/Cyclin D3 complex (Homo sapiens, UniProt P11802) assay, molecule CC(C)c1ccc(Nc2nc(N)c(-c3nc(-c4cc(C(=O)C(Cl)(Cl)Cl)n(C)c4)cs3)s2)cc1 , recorded inhibition at 1 µM = 37.8

Cited source: patent US6620828B2
